target: soluble HLA-A*03:01 (heavy chain with β2M); assay: competition-based peptide-HLA class I binding assay (gel-filtration HPLC with fluorescence detection); 25 pmol HLA heavy chain, 25 pmol β2M, 100 fmol KVFPC(Fl)ALINK and 10-fold serial dilutions of competitor peptide in 100 µL; 100 mM phosphate, 75 mM NaCl, 1 mM CHAPS, pH 7; 24 h at RT; IC50 = 50% reduction of the fluorescent pHLA-complex peak
assay-endpoint: pIC50
Lab note — pIC50 values are minus log10 of concentrations in M.

Sure, the documented pIC50 for AVEEVSLRK [dNPM1 … peptide] is 5.88
